- protocol: Phase-1 drug-drug interaction study in healthy volunteers (Compound (III) 800 mg, SMV 150 mg, Odalasvir 150 mg loading then 50 mg, once daily): plasma PK
- Format: in vivo, human
- condition_details: both sexes, human, plasma, oral, Group 1, Day 23 (SMV + Compound (III) + ODV); read-out: Cmax
parameter_measured: Cmax (ng/mL)
Reply numerically in ng/mL, unit not repeated.

# input Supply recorded Cmax for COC(=O)N[C@H](C(=O)N1[C@H](c2nc3cc(-c4cc5ccc4CCc4ccc(c(-c6ccc7[nH]c([C@@H]8C[C@@H]9CCCC[C@@H]9N8C(=O)[C@@H](NC(=O)OC)C(C)C)nc7c6)c4)CC5)ccc3[nH]2)C[C@@H]2CCCC[C@@H]21)C(C)C here.
# output 744

These measurements were taken from patent US20170087174A1.
